Molecular target: BRD4 (BD1) (Homo sapiens, UniProt O60885)
Construct: His; made in house
Experiment: BRD4 AlphaLisa binding assay
Details: BRD4 (BD1) 30 nM, biotinylated H4-tetraacetyl peptide 200 nM; read-out: BRD4 AlphaLisa
Reported IC50 values for a set of compounds
MEASURE: IC50

[
  {
    "SMILES INPUT": "Cc1nnc2n1-c1ccc(-c3ccccc3)cc1N(c1ccc(Cl)cc1)CC2",
    "RESULT": "100 to 1000 nM"
  },
  {
    "SMILES INPUT": "Cc1nnc2n1-c1ccccc1N(c1ccc(Cl)cc1)C(C)(C)C2",
    "RESULT": "> 10000 nM"
  },
  {
    "SMILES INPUT": "Cc1nnc2n1-c1ccc(-c3cnc(N)nc3)cc1N(c1ccc(Cl)cc1)C[C@H]2C",
    "RESULT": "< 100 nM"
  },
  {
    "SMILES INPUT": "Cc1nnc2n1-c1ccccc1N(c1ccc(Cl)cn1)CC2",
    "RESULT": "1000 to 10000 nM"
  },
  {
    "SMILES INPUT": "Cc1nnc2n1-c1ccc(C(=O)NCCO)cc1N(c1ccc(Cl)cc1)C[C@H]2C",
    "RESULT": "100 to 1000 nM"
  },
  {
    "SMILES INPUT": "Cc1nnc2n1-c1ccc(-c3cnc(N)cn3)cc1N(c1ccc(S(C)(=O)=O)cc1)C[C@H]2C",
    "RESULT": "< 100 nM"
  },
  {
    "SMILES INPUT": "Cc1nnc2n1-c1ccc(-c3ncc(C(=O)O)cn3)cc1N(c1ccc(Cl)cc1)CC2",
    "RESULT": "< 100 nM"
  },
  {
    "SMILES INPUT": "Cc1nnc2n1-c1ccc(-c3ccc(N)nc3)cc1NCC2",
    "RESULT": "1000 to 10000 nM"
  },
  {
    "SMILES INPUT": "Cc1nnc2n1-c1ccc(-c3ccccc3)cc1N(C)CC2",
    "RESULT": "> 10000 nM"
  }
]

---

Test system: MYC mRNA in MV4:11 (AML) cells
Assay: cMyc RNA quantification assay (QuantiGene) in MV4:11 cells
Assay type: cell-based
Conditions: Homo sapiens, 4 h, QuantiGene 2.0
pIC50: −log10 of the molar value.

[
  {
    "COMPOUND": "Cc1nnc2n1-c1ccc(-c3cnc(N)cn3)cc1N(c1ccc(Cl)cc1)C[C@H]2C [Compound 55]",
    "pIC50": "> 7.00"
  },
  {
    "COMPOUND": "Cc1nnc2n1-c1ccc(S(C)(=O)=O)cc1N(c1ccc(Cl)cc1)C[C@H]2C [Compound 60]",
    "pIC50": "5.00 to 6.00"
  },
  {
    "COMPOUND": "Cc1nnc2n1-c1ccc(-c3ccc(C(=O)O)cc3)cc1N(c1ccc(Cl)cc1)CC2 [Compound 20]",
    "pIC50": "6.00 to 7.00"
  },
  {
    "COMPOUND": "Cc1nnc2n1-c1c(F)cccc1N(c1ccc(Cl)cc1)CC2 [Compound 17]",
    "pIC50": "5.00 to 6.00"
  },
  {
    "COMPOUND": "Cc1nnc2n1-c1ccc(-c3cnn(C)c3)cc1N(c1ccc(Cl)cc1)C[C@@H]2C [Compound 42]",
    "pIC50": "5.00 to 6.00"
  },
  {
    "COMPOUND": "Cc1nnc2n1-c1ccc(-c3cnn(CC(N)=O)c3)cc1N(c1ccc(Cl)cc1)C[C@H]2C [Compound 46]",
    "pIC50": "6.00 to 7.00"
  },
  {
    "COMPOUND": "Cc1ncnn1-c1ccc2c(c1)N(c1ccc(Cl)cc1)C[C@@H](C)c1nnc(C)n1-2 [Compound 65]",
    "pIC50": "5.00 to 6.00"
  },
  {
    "COMPOUND": "Cc1nnc2n1-c1ccc(-c3ccc(N)nc3)cc1N(c1ccc(C(N)=O)cc1)CC2C (stereo in doubt) [Compound 70]",
    "pIC50": "5.00 to 6.00"
  },
  {
    "COMPOUND": "Cc1nnc2n1-c1ccc(-c3cnc(N)cn3)cc1N(c1ccc(S(C)(=O)=O)cc1)C[C@H]2C [Compound 79]",
    "pIC50": "6.00 to 7.00"
  },
  {
    "COMPOUND": "Cc1nnc2n1-c1ccc(-c3cn(C)nn3)cc1N(c1ccc(Cl)cc1)C[C@H]2C [Compound 64]",
    "pIC50": "> 7.00"
  },
  {
    "COMPOUND": "Cc1nnc2n1-c1ccc(-c3cnc(N)nc3)cc1N(c1ccc(Cl)cc1)C[C@H]2C [Compound 39]",
    "pIC50": "> 7.00"
  },
  {
    "COMPOUND": "Cc1nnc2n1-c1ccccc1N(c1ccc(Cl)cc1)CC2C (centres unmarked) [Compound 1]",
    "pIC50": "6.00 to 7.00"
  },
  {
    "COMPOUND": "Cc1nnc2n1-c1ccc(-c3ccc(N)nc3)cc1N(c1cnn(C)c1)C[C@H]2C [Compound 76]",
    "pIC50": "6.00 to 7.00"
  },
  {
    "COMPOUND": "Cc1nnc(-c2ccc3c(c2)N(c2ccc(Cl)cc2)C[C@@H](C)c2nnc(C)n2-3)o1 [Compound 49]",
    "pIC50": "> 7.00"
  },
  {
    "COMPOUND": "Cc1ccc(-c2ccc3c(c2)N(c2ccc(Cl)cc2)C[C@H](C)c2nnc(C)n2-3)cn1 [Compound 28]",
    "pIC50": "5.00 to 6.00"
  },
  {
    "COMPOUND": "Cc1nnc2n1-c1ccc(-c3ncccn3)cc1N(c1ccc(Cl)cc1)CC2 [Compound 21]",
    "pIC50": "5.00 to 6.00"
  },
  {
    "COMPOUND": "Cc1nnc2n1-c1ccc(-c3ncc(C(=O)O)cn3)cc1N(c1ccc(Cl)cc1)CC2 [Compound 24]",
    "pIC50": "5.00 to 6.00"
  }
]
